# reported growth; entries follow
Test system: E. coli TESEC Mtb Alr
Assay: growth (OD600 after 10 h); higher = more growth (less inhibition)
Conditions: arabinose 10000000 nM; compound 0.1 mM; raw OD600 reference: median of DMSO wells […], cell-free background 0.052
Respond with the number and no other words.

Worked set:
# molecule, property, observed result
records = [
    ("COc1ccc(C(=O)N2CCCC2=O)cc1", "growth", 0.343),
    ("CC[C@@]1(O)C(=O)OCc2c1cc1n(c2=O)Cc2cc3ccccc3nc2-1 [Camptothecine (S,+)]", "growth", 0.434),
    ("C[C@]12C/C(=C/O)C(=O)C[C@@H]1CC[C@@H]1[C@@H]2CC[C@@]2(C)[C@H]1CC[C@]2(C)O", "growth", 0.252),
    ("O=c1[nH]c2ccccc2n1C1CCN(CCCC(c2ccc(F)cc2)c2ccc(F)cc2)CC1 [Pimozide]", "growth", 0.307),
    ("C[C@H](N)[C@H](O)c1ccc(O)c(O)c1", "growth", 0.371),
]

# growth of `CN1C[C@H](CNC(=O)OCc2ccccc2)C[C@@H]2c3cccc4c3c(cn4C)C[C@H]21` = 0.0508

# growth of CCCCCC[C@H]1C(=O)O[C@H](C)[C@H](NC(=O)c2cccc(NC=O)c2O)C(=O)O[C@@H](C)[C@@H]1OC(=O)CC(C)C [Antimycin A] = 0.319

# growth of `CC(C)c1cccc(C(C)C)c1O` = 0.328

# growth of CN[C@@H]1[C@@H](O)[C@@H](O[C@@H]2[C@@H](O)[C@H](O[C@H]3O[C@H](CN)CC[C@H]3N)[C@@H](N)C[C@H]2N)OC[C@]1(C)O.CN[C@@H]1[C@@H](O)[C@@H](O[C@@H]2[C@@H](O)[C@H](O[C@H]3O[C@H]([C@@H](C)N)CC[C@H]3N)[C@@H](N)C[C@H]2N)OC[C@]1(C)O.CN[C@@H]1[C@@H](O)[C@@H](O[C@@H]2[C@@H](O)[C@H](O[C@H]3O[C@H]([C@@H](C)NC)CC[C@H]3N)[C@@H](N)C[C@H]2N)OC[C@]1(C)O [Gentamicine sulfate] = 0.0981

# growth of `CCN(C)C(=O)Oc1cccc([C@H](C)N(C)C)c1` = 0.342

# growth of `NCCCNCCSP(=O)(O)O` = 0.352

# growth of C[C@]12C[C@H]3S[C@H]3C[C@@H]1CC[C@@H]1[C@@H]2CC[C@]2(C)[C@@H](O)CC[C@@H]12 [Epitiostanol] = 0.265

# growth of CC(=O)NC1CCSC1=O (racemic) = 0.35

# growth of CC(C)c1c(CN(C)C(C)Cc2ccccc2)n(C)n(-c2ccccc2)c1=O (centres undefined) = 0.269

* * *

# reported growth; entries follow
System: E. coli TESEC Mtb Alr
Experiment: growth (OD600 after 10 h); higher = more growth (less inhibition)
Conditions: arabinose 1000 nM; compound 0.1 mM; raw OD600 reference: median of DMSO wells 0.294, cell-free background 0.041
Structures can show the parent of a compound that is named as a salt.
Respond with the number and no other words.

# compound, observed result
data = [
    ("O=P1(NCCCl)OCCCN1CCCl (centres undefined) [Ifosfamide]", 0.301),
    ("CN(C)[C@@H]1C(=O)C(C(N)=O)=C(O)[C@@]2(O)C(=O)C3=C(O)c4c(O)cccc4[C@@](C)(O)[C@H]3C[C@@H]12 [Tetracycline hydrochloride]", 0.0426),
    ("CC(C)CC(N(C)C)C1(c2ccc(Cl)cc2)CCC1 (centres undefined) [Sibutramine HCl]", 0.264),
]

We next turn to a different compound, shown below.
I looked up O=c1[nH]c2ccccc2n1C1CCN(CCCC(c2ccc(F)cc2)c2ccc(F)cc2)CC1 [Pimozide] and its growth for E. coli TESEC Mtb Alr was 0.243

* * *

# reported growth; entries follow
Test system: E. coli TESEC Mtb Alr
Experiment: growth (OD600 after 10 h); higher = more growth (less inhibition)
Conditions: arabinose 10000000 nM; compound 0.1 mM; raw OD600 reference: median of DMSO wells […], cell-free background 0.052
Counter-ions that a name gives are not always drawn.
Respond with the number and no other words.

Worked set:
# compound, growth
data = [
    ("COc1cccc(C2(O)CCCCC2CN(C)C)c1 (stereo not drawn) [Tramadol hydrochloride]", 0.327),
    ("CN(C)C(=O)Oc1cccc([N+](C)(C)C)c1 [Neostigmine bromide]", 0.339),
    ("C=CC[C@]1(O)CC[C@H]2[C@@H]3CCC4=CC(=O)CCC4=C3C=C[C@@]21C", 0.134),
    ("C=C1C[C@@H]2[C@H](CC[C@]3(C)C(=O)CC[C@@H]23)[C@@]2(C)C=CC(=O)C=C12", 0.129),
    ("CN(C)[C@@H]1C(=O)C(C(N)=O)=C(O)[C@@]2(O)C(=O)C3=C(O)c4c(O)cccc4[C@@](C)(O)[C@H]3C[C@@H]12 [Tetracycline hydrochloride]", 0.0604),
]

# growth of `c1ccc2c(c1)Nc1ccccc1S2` = 0.344

# growth of C[N+]1(C)CCOC(O)(c2ccc(-c3ccc(C4(O)C[N+](C)(C)CCO4)cc3)cc2)C1 (stereo not drawn) [Hemicholinium bromide] = 0.397

# growth of COc1ccc(OC)c(C(O)C(C)N)c1 (stereo not drawn) [Methoxamine hydrochloride] = 0.334

* * *

Tested on: E. coli TESEC Mtb Alr
Assay: growth (OD600 after 10 h); higher = more growth (less inhibition)
Conditions: arabinose 100 nM; compound 0.1 mM; raw OD600 reference: median of DMSO wells 0.413, cell-free background 0.052
Counter-ions that a name gives are not always drawn.
Use fulfilled when the recorded growth is no lower than 0.4; use not fulfilled when it is lower.

# compound, answer label
data = [
    ("C[CH2][Hg][S]c1ccccc1C(=O)[O-].[Na+] [Thimerosal]", "not fulfilled"),
    ("CC(C)CC(N(C)C)C1(c2ccc(Cl)cc2)CCC1 (configuration not stated) [Sibutramine HCl]", "fulfilled"),
    ("CC(=O)O[C@H]1C[C@@H]2CC[C@@H]3[C@H](CC[C@@]4(C)[C@H]3C[C@H]([N+]3(C)CCCCC3)[C@@H]4OC(C)=O)[C@@]2(C)C[C@@H]1[N+]1(C)CCCCC1 [Pancuronium bromide]", "fulfilled"),
    ("CCN(C)C(=O)Oc1cccc([C@H](C)N(C)C)c1 [Rivastigmine]", "fulfilled"),
    ("C=CC[C@]1(O)CC[C@H]2[C@@H]3CCC4=CC(=O)CCC4=C3C=C[C@@]21C [Altrenogest]", "not fulfilled"),
    ("Oc1ccc2c3c1O[C@H]1[C@@H](O)CC[C@@]4(O)[C@@H](C2)N(CC2CCC2)CC[C@]314 [Nalbuphine hydrochloride]", "fulfilled"),
]

Shift focus to the following entry.
Incoming: In plain terms: is recorded growth at least 0.4 for CC[C@@]1(O)C(=O)OCc2c1cc1n(c2=O)Cc2cc3ccccc3nc2-1 [Camptothecine (S,+)] ?
Outgoing: fulfilled

* * *

Tested on: E. coli TESEC Mtb Alr
Assay: growth (OD600 after 10 h); higher = more growth (less inhibition)
Details: arabinose 100 nM; compound 0.1 mM; raw OD600 reference: median of DMSO wells 0.413, cell-free background 0.052
Structures can show the parent of a compound that is named as a salt.
# reported growth; entries follow
Respond with the number and no other words.

Worked set:
# compound, growth
data = [
    ("CCCCCC[C@H]1C(=O)O[C@H](C)[C@H](NC(=O)c2cccc(NC=O)c2O)C(=O)O[C@@H](C)[C@@H]1OC(=O)CC(C)C [Antimycin A]", 0.363),
    ("C=C1C[C@@H]2[C@H](CC[C@]3(C)C(=O)CC[C@@H]23)[C@@]2(C)C=CC(=O)C=C12 [Exemestane]", 0.379),
    ("NCCCNCCSP(=O)(O)O [Amifostine]", 0.402),
    ("CO[C@]12C[C@@H](COC(=O)c3cncc(Br)c3)CN(C)[C@@H]1Cc1cn(C)c3cccc2c13 [Nicergoline]", 0.416),
]

# growth of C[C@]12CCC(=O)C(O)=C1CC[C@@H]1[C@@H]2CC[C@]2(C)C(=O)CC[C@@H]12 [Formestane] = 0.373

# growth of CCC1(C)CC(=O)NC(=O)C1 [Bemegride] = 0.4

# growth of CCOC(=O)c1cncn1[C@H](C)c1ccccc1 [Etomidate] = 0.41

# growth of CC[C@@]1([C@@H]2O[C@@H]([C@H]3O[C@@](O)(CO)[C@H](C)C[C@@H]3C)C[C@@H]2C)CC[C@H]([C@]2(C)CC[C@]3(C[C@H](O)[C@@H](C)[C@@H]([C@@H](C)[C@@H](OC)[C@H](C)C(=O)O)O3)O2)O1 [Monensin sodium salt] = 0.384

# growth of CC(=O)O[C@H]1CC[C@@]2(C)C(=CC[C@@H]3[C@@H]2CC[C@]2(C)C(=O)CC[C@@H]32)C1 [Dehydroisoandosterone 3-acetate] = 0.376

# growth of CC(C)(C)NCC(O)c1cc(Cl)c(N)c(Cl)c1 (stereo not given) [Clenbuterol hydrochloride] = 0.398

# growth of CN1[C@@H]2CC[C@H]1C[C@@H](OC1c3ccccc3CCc3ccccc31)C2 [Deptropine citrate] = 0.392

# growth of C(#CCN1CCCC1)CN1CCCC1 [Tremorine dihydrochloride] = 0.415

# growth of O=c1[nH]c2ccccc2n1CCCN1CCC(n2c(=O)[nH]c3cc(Cl)ccc32)CC1 [Domperidone] = 0.41

# growth of C[C@]12CC[C@H]3[C@@H](CCC4=CC(=O)CC[C@@H]43)[C@@H]1CC[C@@H]2O [Nandrolone] = 0.408

# growth of C[C@@H]1O[C@@H](O[C@@H]2C=C3CC[C@@H]4[C@H](CC[C@]5(C)[C@@H](c6ccc(=O)oc6)CC[C@]45O)[C@@]3(C)CC2)[C@H](O)[C@H](O)[C@H]1O [Proscillaridin A] = 0.405

Data origin, for the record: the supplement of paper PMC9262897
